Target: T1, Mouse CTGF protein-His tag (mouse, UniProt P29268 26-348)
T1 construct: C-terminal His tag; also called mouse CTGF-his protein; mouse CTGF fusion protein
T1 sequence: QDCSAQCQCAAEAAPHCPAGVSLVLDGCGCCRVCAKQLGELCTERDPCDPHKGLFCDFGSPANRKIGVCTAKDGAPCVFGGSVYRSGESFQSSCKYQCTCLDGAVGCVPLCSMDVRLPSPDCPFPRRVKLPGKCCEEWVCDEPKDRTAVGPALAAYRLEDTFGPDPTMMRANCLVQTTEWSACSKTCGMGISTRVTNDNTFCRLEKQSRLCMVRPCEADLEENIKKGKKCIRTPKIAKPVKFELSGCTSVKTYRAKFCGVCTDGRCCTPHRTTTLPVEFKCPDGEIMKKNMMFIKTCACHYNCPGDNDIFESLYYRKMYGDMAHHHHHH
Test: ELISA, plate coated with mouse CTGF-his
Quantity Kind: log10 EC50 (log10 of the value in nM)

* Hu147-23wk (antibody, human IgG1, kappa, V domains shown) VH: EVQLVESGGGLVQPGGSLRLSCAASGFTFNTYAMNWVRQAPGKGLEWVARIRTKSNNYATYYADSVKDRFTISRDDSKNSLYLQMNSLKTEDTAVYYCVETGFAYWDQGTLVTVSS VL: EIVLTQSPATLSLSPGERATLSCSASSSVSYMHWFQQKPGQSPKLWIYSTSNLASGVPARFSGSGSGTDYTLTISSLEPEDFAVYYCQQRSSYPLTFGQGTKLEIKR | -0.70
* Hu147-15wk (antibody, human IgG1, kappa, V domains shown) VH: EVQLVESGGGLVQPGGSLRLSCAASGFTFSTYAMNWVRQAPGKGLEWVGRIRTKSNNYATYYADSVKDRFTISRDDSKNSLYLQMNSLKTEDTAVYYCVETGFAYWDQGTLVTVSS VL: DIQLTQSPSSLSASVGDRVTITCSASSSVSYMHWFQQKPGKSPKLWIYSTSNLASGVPSRFSGSGSGTDYTLTISSLQPEDFATYYCQQRSSYPLTFGQGTKLEIKR | -0.80
* Hu147-22wk (antibody, human IgG1, kappa, V domains shown) VH: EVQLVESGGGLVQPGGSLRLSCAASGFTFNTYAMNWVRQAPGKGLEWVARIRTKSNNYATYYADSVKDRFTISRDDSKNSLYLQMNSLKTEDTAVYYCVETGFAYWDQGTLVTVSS VL: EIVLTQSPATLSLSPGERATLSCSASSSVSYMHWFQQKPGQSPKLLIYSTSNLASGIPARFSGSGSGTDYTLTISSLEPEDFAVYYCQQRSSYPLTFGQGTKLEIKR | -0.47
* Hu147-34wk (antibody, human IgG1, kappa, V domains shown) VH: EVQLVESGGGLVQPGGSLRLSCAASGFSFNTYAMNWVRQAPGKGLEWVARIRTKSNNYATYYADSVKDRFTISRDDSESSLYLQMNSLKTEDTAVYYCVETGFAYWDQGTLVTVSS VL: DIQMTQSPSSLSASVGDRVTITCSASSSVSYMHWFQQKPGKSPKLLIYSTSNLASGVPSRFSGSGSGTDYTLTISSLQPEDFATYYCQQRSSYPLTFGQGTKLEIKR | -0.18
* Hu147-24wk (antibody, human IgG1, kappa, V domains shown) VH: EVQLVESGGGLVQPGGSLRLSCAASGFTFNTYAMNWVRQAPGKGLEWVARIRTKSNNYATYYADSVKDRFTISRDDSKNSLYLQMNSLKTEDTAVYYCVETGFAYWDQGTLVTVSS VL: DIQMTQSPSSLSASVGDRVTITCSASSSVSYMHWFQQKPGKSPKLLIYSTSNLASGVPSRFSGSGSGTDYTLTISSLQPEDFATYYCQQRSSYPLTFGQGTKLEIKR | -0.58
* positive control CTGF antibody mAb1 (antibody, V domains shown, Positive control, from CN1829740B; also called pamrevlumab; FG-3019) VH: EGQLVQSGGGLVHPGGSLRLSCAGSGFTFSSYGMHWVRQAPGKGLEWVSGIGTGGGTYSTDSVKGRFTISRDNAKNSLYLQMNSLRAEDMAVYYCARGDYYGSGSFFDCWGQGTLVTVSS VL: DIQMTQSPSSLSASVGDRVTITCRASQGISSWLAWYQQKPEKAPKSLIYAASSLQSGVPSRFSGSGSGTDFTLTISSLQPEDFATYYCQQYNSYPPTFGQGTKLEIKR | -1.11
* Hu147-33wk (antibody, human IgG1, kappa, V domains shown) VH: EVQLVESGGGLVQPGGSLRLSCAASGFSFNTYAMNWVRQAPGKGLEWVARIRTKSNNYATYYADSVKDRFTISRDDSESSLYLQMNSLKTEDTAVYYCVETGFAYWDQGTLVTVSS VL: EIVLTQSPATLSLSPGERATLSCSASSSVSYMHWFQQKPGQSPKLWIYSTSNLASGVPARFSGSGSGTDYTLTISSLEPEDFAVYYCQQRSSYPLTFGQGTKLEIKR | -0.59
* Hu147-21wk (antibody, human IgG1, kappa, V domains shown) VH: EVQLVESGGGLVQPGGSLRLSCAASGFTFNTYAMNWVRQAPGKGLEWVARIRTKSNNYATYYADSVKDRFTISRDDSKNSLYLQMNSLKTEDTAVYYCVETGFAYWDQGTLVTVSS VL: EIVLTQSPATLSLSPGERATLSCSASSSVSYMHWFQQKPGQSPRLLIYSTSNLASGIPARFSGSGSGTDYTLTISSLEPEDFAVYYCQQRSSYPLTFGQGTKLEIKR | -0.61
* Hu164-69wl (antibody, human IgG1, lambda, V domains shown) VH: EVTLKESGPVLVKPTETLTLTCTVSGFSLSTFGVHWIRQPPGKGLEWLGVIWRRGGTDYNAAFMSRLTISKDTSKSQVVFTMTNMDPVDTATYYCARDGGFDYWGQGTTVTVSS VL: ESVVTQPPSVSGAPGQRVTISCRSSIGAVTTSNYANWVQQLPGTAFKGLIGGTSNRAPGVPDRFSGSKSGTSASLAITGLQAEDEADYYCALWYSTHYVFGGGTKLTVLG | -1.23
* Hu147-13wk (antibody, human IgG1, kappa, V domains shown) VH: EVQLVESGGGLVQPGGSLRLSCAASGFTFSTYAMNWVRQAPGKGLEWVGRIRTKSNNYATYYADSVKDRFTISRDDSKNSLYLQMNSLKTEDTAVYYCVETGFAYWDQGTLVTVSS VL: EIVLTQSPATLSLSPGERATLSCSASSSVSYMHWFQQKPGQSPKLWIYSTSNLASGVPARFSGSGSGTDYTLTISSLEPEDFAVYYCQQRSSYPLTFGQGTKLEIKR | -0.90
